B1: Twister Ribozyme (parent)
chain: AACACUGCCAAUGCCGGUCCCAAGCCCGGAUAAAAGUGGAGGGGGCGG

- Variants of: B1
- Measurement description: self-cleavage, relative activity (ratio to wild type); higher = more cleavage; co-transcriptional
List of self-cleavage values.
Enter the number alone.

Worked cases, answers included:
[[record]]
sequence_data = "ACCACUGCCAAUGCCCGUCCCAAGCCCGGAUAAAAGUGGAGGGGGCGG"
reported_endpoint = "self-cleavage"
endpoint_value = 0.0398

[[record]]
sequence_data = "AACACUGACAAUGCCGGUCCCAAGCCCGGAUAAAAGUGGAGGGGGUGG"
reported_endpoint = "self-cleavage"
endpoint_value = 0.46

[[record]]
sequence_data = "AACACUGCCAAUGCCGGUCCCAGGCCCGGAUAAAAGUGCAGGGGGCGG"
reported_endpoint = "self-cleavage"
endpoint_value = 0.102


Problem: Record request: self-cleavage value, item `AACACUGCCAAUGCCGGUCCCAAGCCCGGAUACAAGUCGAGGGGGCGG`
Result: 0.918

Problem: Quick check: self-cleavage of `AACACUGCCAAUGCCGGUCCCAAGCCCGGAUAUAAGUGGAGGGGUCGG` ?
Result: 0.843

Problem: Sample `AACACUUCCAAUGCCGGUCCCAAGCCCGGAUAAAAGUGGAGGGGGCGG` — what was its self-cleavage?
Result: 0.143

Source listed as the RNAGym collection of RNA variant scans (doi:10.7554/elife.80360).
